Catalogue of TGI values
Tested on: Mus musculus
experimentNotes: Percent tumor growth inhibition against human epidermoid carcinoma KB/8.5 implanted subcutaneously in mice at 50 mg/kg of compound along with 8 mg/kg (DOX ) was determined
Type: functional
quantityName: TGI (%)

| molecule | value |
| --- | --- |
| COc1ccc(C(C#N)(CCCCCN2Cc3cc(OC)c(OC)cc3C2)Sc2ccc(C)cc2)cc1OC (stereo in doubt; 28a) | 65 |
| COc1ccc(C(C#N)(CCCCCN2CCc3cc(OC)c(OC)cc3C2)Sc2ccc(C)cc2)cc1OC (centres undefined) | 59 |
| COc1ccc(C(C#N)(CCCN2CCc3cc(OC)c(OC)cc3C2)Sc2ccc(C)cc2)cc1OC (centres undefined) | 63 |
| COc1ccc(C(C#N)(CCCCCCCCCCCN2CCc3cc(OC)c(OC)cc3C2)Sc2ccc(C)cc2)cc1OC (centres undefined) | 61 |

---

Catalogue of IC50 values
Tested on: S1B1-20
experimentNotes: In vitro concentration required to inhibit tumor activity on subclone of human colon carcinoma cells (S1-B1-20) resistant to bisantrene
Assay type: functional, cell-based
protocolConditions: s1b1-20

| compound | endpointUnit | IC50 |
| --- | --- | --- |
| COc1ccc(C(C#N)(CCCCCN2Cc3cc(OC)c(OC)cc3C2)Sc2ccc(C)cc2)cc1OC (stereo in doubt; 28a) | nM | 810 |
| COc1ccc(C(C#N)(CCCCCN2Cc3cc(OC)c(OC)cc3C2)Sc2ccc(C)cc2)cc1OC (stereo in doubt; 44) | nM | 260 |
| COc1cc2c(cc1OC)CN(CCCCCCC(Sc1ccc(C)cc1)c1ccc(OC)c(OCCn3ccnc3)c1)CC2 (stereo in doubt; 47) | nM | 290 |
| COc1ccc(C(C#N)(CCCCCN2CCc3cc(OC)c(OCCn4ccnc4)cc3C2)Sc2ccc(C)cc2)cc1OC (stereo in doubt; 39a) | nM | 690 |
| COc1cc2c(cc1OC)CN(CCCCCCC(Sc1ccc(C)cc1)c1ccc(OC)c(OCCn3ccnc3)c1)CC2 (stereo in doubt; 37b) | nM | 690 |
| COc1ccc(C(C#N)(CCCCCN2Cc3cc(OC)c(OC)cc3C2)SC2CCCCC2)cc1OC (stereo in doubt; 28c) | nM | 350 |

---

System: S1B1-20
experimentNotes: In vitro concentration required to inhibit tumor activity on subclone of human colon carcinoma cells (S1-B1-20) resistant to bisantrene
Assay type: functional, cell-based
protocolConditions: Homo sapiens, S1B1-20
pIC50: −log10 of the molar value.

| compound | pIC50 |
| --- | --- |
| COc1ccc(C(C#N)(CCCCCCCCN2CCc3cc(OC)c(OC)cc3C2)Sc2ccc(C)cc2)cc1OC (centres undefined) | 6.44 |
| COc1ccc(C(C#N)(CCCCCN2CCc3cc4c(cc3C2)OCO4)Sc2ccc(C)cc2)cc1OC (centres undefined) | 5.51 |
| COc1ccc(C(CCCCCCN2CCc3cc(OC)c(OC)cc3C2)Sc2ccc(C)cc2)cc1O (centres undefined) | 6.08 |
| COc1cc2c(cc1OC)CN(CCCCCCC(Sc1ccc(C)cc1)c1ccc(OC)c(O[Si](C)(C)C(C)(C)C)c1)CC2 (centres undefined) | 4.97 |

---

experimentNotes: Partition coefficient (logP)
Assay type: physicochemical
protocolConditions: octanol/water; read-out: logP
Binarize logP at 6; below is Yes, at or above is No.

| compound | cat |
| --- | --- |
| COc1ccc(C(C#N)(CC#CCCN2CCc3cc(OC)c(OC)cc3C2)Sc2ccc(C)cc2)cc1OC (stereo not drawn) | Yes |
| COc1ccc(C(CCCCCCN2CCc3cc(OC)c(OC)c(OC)c3C2)Sc2ccc(C)cc2)cc1OC (stereo not drawn) | No |
| COc1ccc(CC2c3cc(OC)c(OC)cc3CCN2CCCCCC(C#N)(Sc2ccc(C)cc2)c2ccc(OC)c(OC)c2)cc1OC (stereo not drawn) | No |
| COc1ccc(C(C#N)(CCCCCN2CCc3cc(OC)c(OCc4ccccc4)cc3C2)Sc2ccc(C)cc2)cc1OC (stereo not drawn) | No |
| COc1ccc(C(CCCCCN2CCc3cc(OC)c(OC)cc3C2)Sc2ccc(C)cc2)cc1OC (stereo not drawn) | No |
| COC(=O)C(CCCN1CCc2cc(OC)c(OC)cc2C1)(Sc1ccc(C)cc1)c1ccc(OC)c(OC)c1 (stereo not drawn) | Yes |
| COc1ccc(C(C#N)(CCCCCCCCN2CCc3cc(OC)c(OC)cc3C2)Sc2ccc(C)cc2)cc1OC (stereo not drawn) | No |
| COc1ccc2c(c1)CCN(CCCCCC(Sc1ccc(C)cc1)c1ccc(OC)c(OC)c1)C2 (stereo not drawn) | No |
| COc1cc2c(cc1O)CN(CCCCCC(C#N)(Sc1ccc(C)cc1)c1ccc(OC)c(OC)c1)C2 (stereo not drawn) | Yes |
| COc1ccc(C(C#N)(CCCCCN2Cc3cc(OC)c(OCCn4ccnc4)cc3C2)Sc2ccc(C)cc2)cc1OC (stereo not drawn) | Yes |

---

Tested on: S1B1-20
experimentNotes: In vitro concentration at which 50% of human colon carcinoma cells (S1-B1-20) resistant to bisantrene have survived
Format: ADME, cell-based
protocolConditions: s1b1-20, read-out: LD50 (the source's name)
Binarize CC50 at 10 µM; below is YES, at or above is NO.

| compound | system | cat |
| --- | --- | --- |
| COc1ccc(C(C#N)(CCCCCN2Cc3cc(OC)c(OC)cc3C2)Sc2ccc(C)cc2)cc1OC (stereo in doubt; 28a) | S1B1-20 | NO |
| COc1ccc(C(C#N)(CCCCCN2Cc3cc(OC)c(OC)cc3C2)SC2CCCCC2)cc1OC (stereo in doubt; 28c) | S1B1-20 | NO |
| COc1ccc(C(C#N)(CCCCCN2CCc3cc(OC)c(OCCn4ccnc4)cc3C2)Sc2ccc(C)cc2)cc1OC (stereo in doubt; 39a) | S1B1-20 | NO |
| COc1ccc(C(C#N)(CCCCCN2Cc3cc(OC)c(OC)cc3C2)Sc2ccc(C)cc2)cc1OC (stereo in doubt; 44) | S1B1-20 | NO |
| COc1cc2c(cc1OC)CN(CCCCCCC(Sc1ccc(C)cc1)c1ccc(OC)c(OCCn3ccnc3)c1)CC2 (stereo in doubt; 47) | S1B1-20 | YES |

---

Catalogue of TGI values
Tested on: Mus musculus
experimentNotes: Percent tumor growth inhibition against human epidermoid carcinoma KB/8.5 implanted subcutaneously in mice at 100 mg/kg of compound along with 8 mg/kg (DOX ) was determined
Assay type: functional
quantityName: TGI (%)

| compound | system | value |
| --- | --- | --- |
| COc1ccc(C(C#N)(CCCCCN2CCc3cc(OC)c(OC)cc3C2)SC2CCCCC2)cc1OC (stereo not drawn) | Mus musculus | 69 |
| COc1cc2c(cc1OC)CN(CCCCCCC(Sc1ccc(C)cc1)c1ccc(OC)c(OCCn3ccnc3)c1)CC2 (stereo in doubt; 37b) | Mus musculus | 67 |
| COc1ccc(C(CCCCCN2CCc3cc(OC)c(OC)cc3C2)Sc2ccc(C)cc2)cc1OC (stereo not drawn) | Mus musculus | 68 |
| COc1ccc(C(CCCCCCN2Cc3cc(OC)c(OC)cc3C2)Sc2ccc(C)cc2)cc1OC (stereo not drawn) | Mus musculus | 60 |
| COc1ccc(C(CCCCCN2CCc3cc(OC)c(OC)cc3C2)SCc2ccccc2)cc1OC (stereo not drawn) | Mus musculus | 68 |
| COc1ccc(C(CCCCCCN2CCc3cc(OC)c(OC)c(OC)c3C2)Sc2ccc(C)cc2)cc1OC (stereo not drawn) | Mus musculus | 54 |
| COc1cc2c(cc1OC)CN(CCCCCC(Sc1ccc(C)cc1)c1ccc(OC(F)(F)F)cc1)CC2 (stereo not drawn) | Mus musculus | 51 |
| COc1cc2c(cc1OC)CN(CCCCCCC(Sc1ccc(C)cc1)c1ccc(OC)c(OCCn3ccnc3)c1)CC2 (stereo in doubt; 47) | Mus musculus | 56 |

---

Catalogue of IC50 values
System: S1B1-20
experimentNotes: In vitro concentration required to inhibit tumor activity on subclone of human colon carcinoma cells (S1-B1-20) resistant to bisantrene
Assay type: functional, cell-based
protocolConditions: Homo sapiens, S1B1-20
quantityName: IC50 (nM)

| compound | system | quantityName | value |
| --- | --- | --- | --- |
| COc1ccc(C(C#N)(CCCCCN2CCc3cc(OC)c(OCCCl)cc3C2)Sc2ccc(C)cc2)cc1OC (stereo not drawn) | S1B1-20 | IC50 | 370 |
| COc1ccc(C(CCCCCCN2CCc3cc(OC)c(OC)cc3C2)Sc2ccc(C)cc2)cc1OC (stereo not drawn) | S1B1-20 | IC50 | 900 |
| COc1ccc(C(CCCCCN2CCc3cc(OC)c(OC)cc3C2)SC(C)(C)C)cc1OC (stereo not drawn) | S1B1-20 | IC50 | 3580 |
| COc1ccc(C(C#N)(CCCCCN2CCc3cc(OC)c(OCCn4ccnc4)cc3C2)Sc2ccc(C)cc2)cc1OC (stereo in doubt; 48) | S1B1-20 | IC50 | 530 |
| COc1cc2c(cc1OC)CN(CCCCCC(Sc1ccc(C)cc1)c1ccc3c(c1)OCO3)CC2 (stereo not drawn) | S1B1-20 | IC50 | 500 |
| COc1ccc(C(C#N)(CCCCCN2CCc3cc(OC)c(OC)cc3C2)SC2CCCCC2)cc1OC (stereo not drawn) | S1B1-20 | IC50 | 460 |
| COc1cc2c(cc1OC)CN(CCCCCCC(Sc1ccccc1)c1ccccc1)CC2 (stereo not drawn) | S1B1-20 | IC50 | 3820 |
| COc1ccc(C(C#N)(CC#CCCN2CCc3cc(OC)c(OC)cc3C2)Sc2ccc(C)cc2)cc1OC (stereo not drawn) | S1B1-20 | IC50 | 970 |
